Target sequence: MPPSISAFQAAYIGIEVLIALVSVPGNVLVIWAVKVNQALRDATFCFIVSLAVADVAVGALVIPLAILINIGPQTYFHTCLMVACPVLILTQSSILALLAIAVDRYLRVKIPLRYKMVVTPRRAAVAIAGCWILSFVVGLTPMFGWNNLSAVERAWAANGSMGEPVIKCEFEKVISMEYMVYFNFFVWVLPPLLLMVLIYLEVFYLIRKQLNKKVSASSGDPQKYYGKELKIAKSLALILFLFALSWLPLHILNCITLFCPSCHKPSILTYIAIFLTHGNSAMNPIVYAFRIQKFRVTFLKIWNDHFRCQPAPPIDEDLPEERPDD
pKi: −log10 of the molar value. Structures can show the parent of a compound that is named as a salt.
quantity-name: pKi

a: CCn1nccc1-c1c(-c2cccc(C#N)c2)nn2ccc(N3CCN(S(C)(=O)=O)CC3)nc12 [Example 33.4]
b: Cn1ccnc1CN1CCN(c2ccn3nc(-c4ccco4)c(C#N)c3n2)CC1 [Example 51.2]
c: N#Cc1c(-c2ccco2)nn2ccc(NC[C@H]3CCCNC3)nc12 [Example 56, hydrochloride]
d: Cc1cc(-c2c(-c3cccc(C#N)c3)nn3ccc(CN4CCNCC4)nc23)cc(C)n1 [Example 20.1, trifluoroacetate]
e: CO[C@H]1CN(C)C[C@@H]1Nc1ccn2nc(-c3cccc(C#N)c3)c(-c3cc(C)nc(Cl)c3)c2n1 [Example 2.5]
Sort the list above on pKi in ascending fashion. The labels, placed in the requested order, form the answer.
d, c, a, b, e
(d: 5.60, c: 6.28, a: 6.60, b: 6.98, e: 7.62)
